- System: SW-620 colon
- Procedure details: NCI tumour cell line growth inhibition, 48 h
Reported endpoint: TGI

Use these answered entries as a reference point.
| Compound | Target system | TGI |
| --- | --- | --- |
| NC1=NCCC1(c1ccccc1)c1ccccn1 (centres undefined) | SW-620 colon | > 100 µM |
| COC(=O)c1ccccc1CC1Cc2ccc3c(c2C1=O)CCCC3 (centres undefined) | SW-620 colon | > 100 µM |
| OCC1=CC(NC2CC(CO)C(O)C(O)C2O)C(O)C(O)C1O (centres undefined) | SW-620 colon | > 100 µM |

The compound Cc1ccc(Cl)c2[nH]c(-c3ccccc3)cc(=O)c12 , when measured on SW-620 colon, yielded TGI of > 100 µM

The compound O=C(Nc1ccc(-n2ccc3c(NC(=O)c4ccccc4)nccc32)cc1)c1ccc(Cl)c(C(F)(F)F)c1 , when measured on SW-620 colon, yielded TGI of 1.44 µM

The compound CCOC(=O)c1csc(NC(=O)CN2CCOCC2)n1 , when measured on SW-620 colon, yielded TGI of > 100 µM

The compound CC(=O)OC1CC(OC2C(O)CC(OC3C(O)CC(OC4CCC5(C)C(CCC6C5CC(O)C5(C)C(C7=CC(=O)OC7)CCC65O)C4)OC3C)OC2C)OC(C)C1OC1OC(CO)C(O)C(O)C1O (centres undefined) , when measured on SW-620 colon, yielded TGI of 0.252 µM

The compound COC(=O)/C(C#N)=C1\NC(=O)c2ccccc21 , when measured on SW-620 colon, yielded TGI of > 100 µM

The compound O=[N+]([O-])c1cccc(-c2csc(NNC3=NC/C(=C/c4ccc5c(c4)OCO5)S3)n2)c1 , when measured on SW-620 colon, yielded TGI of > 100 µM

The compound COC(=O)C1SC(SC)=NC12c1ccccc1Nc1ccccc12 (centres undefined) , when measured on SW-620 colon, yielded TGI of > 100 µM

* * *

// TGI lookup, one value per entry
- System: UO-31 renal
- Procedure details: NCI tumour cell line growth inhibition, 48 h

| Compound | TGI |
| --- | --- |
| CC1(C)N=[N+]([O-])C1(C)C | > 100 µM |

Measured TGI of Cc1ccc(Cl)c2c(N=Nc3ccccc3[N+](=O)[O-])c(O)[nH]c12 : > 100 µM

Measured TGI of COC(=O)c1ccccc1CC1Cc2ccc3c(c2C1=O)CCCC3 (stereo unspecified) : > 100 µM

Measured TGI of Cc1ccsc1C(=S)Nc1ccc(Cl)c(/C=N/OC(C)(C)C)c1 : > 100 µM

Measured TGI of O=C(CCN1CCCCC1)C(=Cc1ccccc1)C(=O)CCN1CCCCC1 : > 100 µM

Measured TGI of CCCCCCc1cc2cc(-c3csc(CC#N)n3)c(=O)oc2cc1O : > 78.6 µM

Measured TGI of NC(=O)NO.O.O.O.O.O.O.O.O.O.O.O.[Ge].[Ge].[Ge].[Ge].[Ge].[O]=[Ge].[O]=[Ge].[O]=[Ge].[O]=[Ge].[O]=[Ge][OH] : > 100 µM

* * *

- Test system: 786-0 renal
- Procedure details: NCI tumour cell line growth inhibition, 48 h
Reported endpoint: TGI (µM)
Report the figure in µM without appending any unit label.

Use these answered entries as a reference point.
| Compound | TGI [µM] |
| --- | --- |
| CC(C)=CCc1c2c(c3occ(-c4ccc(O)cc4)c(=O)c3c1O)CC(C(C)(C)O)O2 (stereo not drawn) | 35.6 |
| O=C1CCCc2cc3c(cc21)CC1(Cc2ccccc2C1)C3 | 29.6 |

The compound CCOC(=O)C1(C/C=C/CBr)Cc2ccccc2C1=O (stereo not drawn) , when measured on 786-0 renal, yielded TGI of 25.8

The compound CC(C)(C)N1CSC(=S)N(Cc2ccco2)C1 , when measured on 786-0 renal, yielded TGI of 11.5

The compound COc1ccc(N/N=C2\CCOc3ccc(C)cc3C2=O)cc1 , when measured on 786-0 renal, yielded TGI of 41.8

The compound Cc1ccnc2c1ccc1c(C)ccnc12 , when measured on 786-0 renal, yielded TGI of 10.9

The compound Fc1ccc(NC(=S)SCc2ccc3c(c2)OCO3)cc1F , when measured on 786-0 renal, yielded TGI of 72.4

The compound Nc1nc(-n2c(-c3ccccc3)nc3c(Br)cc(Br)cc3c2=O)nnc1-c1cccc(Cl)c1Cl , when measured on 786-0 renal, yielded TGI of 60.7

This collection of values is drawn from PubChem BioAssay (NCI).
